Molecular target: T1, IKKα(10-667) S176E/S180E homodimer, 6×His tag removed (human, UniProt O15111 10-667)
T1 construct: also called purified IKKα
T1 sequence (looked up): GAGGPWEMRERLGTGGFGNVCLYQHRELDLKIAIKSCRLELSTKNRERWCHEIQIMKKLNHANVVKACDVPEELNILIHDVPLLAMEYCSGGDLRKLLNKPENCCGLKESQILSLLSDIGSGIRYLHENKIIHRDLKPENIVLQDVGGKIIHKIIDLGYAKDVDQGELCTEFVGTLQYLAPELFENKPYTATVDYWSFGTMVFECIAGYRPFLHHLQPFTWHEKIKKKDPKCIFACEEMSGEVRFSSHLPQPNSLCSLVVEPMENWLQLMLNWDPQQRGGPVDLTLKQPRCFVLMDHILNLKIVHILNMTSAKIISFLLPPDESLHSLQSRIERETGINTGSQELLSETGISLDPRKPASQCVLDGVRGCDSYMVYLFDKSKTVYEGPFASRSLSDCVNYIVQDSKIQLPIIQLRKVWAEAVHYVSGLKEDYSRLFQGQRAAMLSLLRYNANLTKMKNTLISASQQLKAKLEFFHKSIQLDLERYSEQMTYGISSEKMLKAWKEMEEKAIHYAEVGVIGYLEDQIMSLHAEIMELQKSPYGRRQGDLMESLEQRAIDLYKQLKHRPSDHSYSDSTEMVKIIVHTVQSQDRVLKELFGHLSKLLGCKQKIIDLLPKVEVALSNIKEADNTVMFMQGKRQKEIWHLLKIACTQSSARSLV
Test: ITC, 25 °C, synthetic peptide into IKK homodimer, 1:1 model
pKd: −log10 of the molar value.
quantity: pKd

(1) GLDGIIEYDDFKLNSSIVEPKE [synthetic p100 pep]
(2) EFTEDELPYDDLVFGGQRLTL (also called C308L IκBα pep; IkBα pep C308L) [synthetic IκBα pep C308L]
Returns the identifier with the smallest measured pKd among 1 and 2 . // output: label of the selected item
1
(1: 4.96, 2: 6.46)
